- Tested on: HSC-3 (Oral Cavity Carcinoma);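 also: after 72 h of two-drug dosing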
- TEST METHOD NOTES: Bliss excess, mean over the matrix (fraction); higher = more synergy
Recorded Bliss excess values for a group of molecules are listed next.
Number only, no unit.

Worked examples, 3 molecules total:
molecule="CC(=O)Nc1cccc(-n2c(=O)n(C3CC3)c(=O)c3c(Nc4ccc(I)cc4F)n(C)c(=O)c(C)c32)c1 [Trametinib] + Cc1nc(-c2cn3c(n2)-c2ccc(-c4cnn(C(C)(C)C(N)=O)c4)cc2OCC3)n(C(C)C)n1 [Taselisib] (first compound max 1 µM, 7x7, partner max 10 µM)" val=0.15
molecule="C[C@@H]1COCCN1c1cc(C2([S@](C)(=N)=O)CC2)nc(-c2ccnc3[nH]ccc23)n1 [AZD6738] + O=C(c1cc(Cc2n[nH]c(=O)c3ccccc23)ccc1F)N1CCN(C(=O)C2CC2)CC1 [Olaparib] (first compound max 10 µM, 7x7, partner max 10 µM)" val=0.0043
molecule="Cn1cnc2c(F)c(Nc3ccc(Br)cc3Cl)c(C(=O)NOCCO)cc21 [Selumetinib] + CC(C)n1c(=O)n(C)c2cnc3cc(F)c(-c4ccc(OCCCN5CCCCC5)nc4)cc3c21 [AZD1390] (first compound max 10 µM, 7x7, partner max 0.3 µM)" val=-0.0424

Below: the item to evaluate.
Supply recorded Bliss excess for CCN(CCO)CCCOc1ccc2c(Nc3cc(CC(=O)Nc4cccc(F)c4)[nH]n3)ncnc2c1 [AZD2811] + C=CCn1c(=O)c2cnc(Nc3ccc(N4CCN(C)CC4)cc3)nc2n1-c1cccc(C(C)(C)O)n1 [AZD1775] (first compound max 1 µM, partner max 1 µM) here.
0.0504
